Tested on: HCT-116 colon
Assay Explanation: NCI-60 one-dose screen, 48 h (100 = growth as untreated, 0 = no growth, -100 = all killed)
Applied Conditions: 10 µM unless noted
About 83,000 compounds went through this panel and 20% of them were active in at least one assay; those are over-represented in the sample as a whole.
growth values for the molecules below.
Observed Property: growth (%)

- CC/C(Cc1ccccc1)=C(\c1ccc(OCCN2CCCC2)cc1)c1ccc(OC(=O)NCc2ccccc2)cc1: -34.2
- CC[C@@H](C)C(=O)O[C@H]1[C@H](O)[C@H]2[C@@H](CN3C[C@@H](C)CC[C@H]3[C@@]2(C)O)[C@@H]2C[C@]34O[C@]5(O)[C@@H](OC(=O)[C@@](C)(O)CC)CC[C@@]3(C)[C@@H]5[C@@H](OC(C)=O)[C@@H](OC(C)=O)[C@H]4[C@@]21O: 98.1
- O=C=Nc1ccc(Br)cc1: 94.3
- O=P(O)(Nc1ccccc1)Nc1ccccc1: 89.1
- C[C@]12CCc3sc(Nc4ccc(OC(F)(F)F)cc4)nc3C1=CC[C@@H]1[C@@H]2CC[C@]2(C)C(=O)CC[C@@H]12: 7.77

====

growth values for the compounds below.
System: SN12C renal
Assay Explanation: NCI-60 one-dose screen, 48 h (100 = growth as untreated, 0 = no growth, -100 = all killed)
Applied Conditions: 10 µM unless noted
This is part of a sample that, as a whole, favours compounds with a hit. Of some 83,000 tested, about 20% had one in any assay.
Observed Property: growth (%)

• Nc1ccc(S(=O)(=O)F)cc1 = 105
• C[C@]12CC[C@H]3[C@@H](C[C@@H]4SC(Nc5ccccc5)=N[C@@]45C/C(=N/O)CC[C@]35C)[C@@H]1CCC2=O = 84.7
• CC/C(Cc1ccccc1)=C(\c1ccc(OCCN2CCCC2)cc1)c1ccc(OC(=O)NCc2ccccc2)cc1 = 54.2
• C[C@@]12CCCc3coc(c31)C(=O)c1cc3c(cc12)C(=O)C1=C(NCCS1(=O)=O)C3=O = -79.3
• O=C/C=C/c1ccco1 = 101
• Cc1cc(C(C)(C)C)ccc1O = 114
• ClCc1ccc(Cl)c(Cl)c1 = 97.9
• N#CC(NC(=O)CCl)=C(Cl)Cl = 29
• N#CCCc1ccccc1 = 103
• CCN1C(=O)CC(=O)N(CC)C1=S = 99.3
• C[C@]12CC[C@H]3[C@@H](CC=C4c5nc(N)sc5CC[C@@]43C)[C@@H]1CC[C@@H]2O = 93.8
• CC[C@H](C)[C@H](NC(=O)c1cnccn1)C(=O)N(C)[C@H](C[C@@H](OC(C)=O)c1nc(C(=O)N[C@@H](Cc2ccccc2)C[C@H](C)C(=O)OC)cs1)C(C)C = 43.6
• C[C@]12CCc3sc(Nc4ccc(F)cc4)nc3C1=CC[C@@H]1[C@@H]2CC[C@]2(C)C(=O)CC[C@@H]12 = 73.8
• CC[C@H](C)[C@H](NC(=O)[C@H]1CCCCN1C)C(=O)N(C)[C@H](CCc1nc(C(=O)N[C@@H](Cc2ccccc2)C[C@H](C)C(=O)O)cs1)C(C)C = 46.8
• CN1CCC2(CC1)C(C#N)C(=O)NC(=O)C2C#N (stereo not given) = 105

The measurements presented in this section are drawn from PubChem BioAssay (NCI).
